- Tested on: Zymoseptoria tritici (the causal agent of wheat leaf blotch)
- method: Test B: preventive spray on wheat seedlings, wheat leaf blotch, visual disease rating
- Assay type: in vivo
- test settings: 250 ppm test suspension; wheat seedlings; 100 = 100% disease control
Marks after values point to notes of the source that are not given here.
reported endpoint: Test B disease control rating

Worked cases, answers included:
item smiles: COC(=O)c1coc(Cc2ccc(-c3noc(C(F)(F)F)n3)cc2)c1
readout value: 65* %

item smiles: COC(=O)c1csc(Cc2ccc(-c3noc(C(F)(F)F)n3)cc2)c1
readout value: 66* %

As a next step, examine the compound that follows.
[in] Quick one: Test B disease control rating of FC(F)(F)c1nc(-c2ccc(Cc3ccccc3)cc2)no1 ?
[out] 8* %

====

Recorded pest or weed control at 250 ppm by entry
- Test system: Zymoseptoria tritici (the causal agent of wheat leaf blotch)
- method: Test B: preventive spray on wheat seedlings, wheat leaf blotch, visual disease rating
- Assay type: in vivo
- test settings: Zymoseptoria tritici, 456 h; 250 ppm test suspension; wheat seedlings; 100 = 100% disease control
Give just the numeric value; % need not be written.

Worked cases, answers included:
compound: COCCNC(=O)c1csc(Cc2ccc(-c3noc(C(F)(F)F)n3)cc2)n1 [Compound 394]
reported endpoint: pest or weed control at 250 ppm
readout value: 99
--
compound: CN(C)C(=O)C1=NOC(COc2cccc(-c3noc(C(F)(F)F)n3)c2)C1 (stereo not shown) [compound 502]
reported endpoint: pest or weed control at 250 ppm
readout value: 62

[in] Quick one: pest or weed control at 250 ppm of O=C(NCCOC(F)(F)F)c1coc(Cc2ccc(-c3noc(C(F)(F)F)n3)cc2)n1 [Compound 401] ?
[out] 77

[in] Quick one: pest or weed control at 250 ppm of COCCNC(=O)c1noc(Cc2ccc(-c3noc(C(F)(F)F)n3)cc2)n1 [Compound 511] ?
[out] 90

====

- System: Puccinia recondita f. sp. tritici (the causal agent of wheat leaf rust)
- method: Test C: preventive spray on wheat seedlings, wheat leaf rust, visual disease rating
- Assay type: in vivo
- test settings: test suspension 10 ppm; wheat seedlings
reported endpoint: Test C disease control rating (%)
Give just the numeric value; % need not be written.

Worked cases, answers included:
item smiles: Cc1ccc(F)cc1OCc1ccc(-c2noc(C(F)(F)F)n2)s1
units: %
readout value: 98

item smiles: COCC(COC)NC(=O)c1coc(Cc2ccc(-c3noc(C(F)(F)F)n3)cc2)n1
units: %
readout value: 100

[in] Please provide the recorded Test C disease control rating for FC(F)(F)c1nc(-c2ccc(Cn3ccc4ccncc43)cc2)no1 , tested on Puccinia recondita f. sp. tritici (the causal agent of wheat leaf rust).
[out] 0

[in] Please provide the recorded Test C disease control rating for Cc1cc2c(cnn2Cc2ccc(-c3noc(C(F)(F)F)n3)cc2)cc1Br , tested on Puccinia recondita f. sp. tritici (the causal agent of wheat leaf rust).
[out] 68

[in] Please provide the recorded Test C disease control rating for CC(COC(=O)c1cnn(Cc2ccc(-c3noc(C(F)(F)F)n3)cc2)c1)=NO , tested on Puccinia recondita f. sp. tritici (the causal agent of wheat leaf rust).
[out] 91

[in] Please provide the recorded Test C disease control rating for COC(=O)c1cc(COc2ccc(-c3noc(C(F)(F)F)n3)cc2)on1 , tested on Puccinia recondita f. sp. tritici (the causal agent of wheat leaf rust).
[out] 0

[in] Please provide the recorded Test C disease control rating for N#Cc1nn(Cc2ccc(-c3noc(C(F)(F)F)n3)cc2)c2ccccc12 , tested on Puccinia recondita f. sp. tritici (the causal agent of wheat leaf rust).
[out] 68

[in] Please provide the recorded Test C disease control rating for O=C(c1coc(Cc2ccc(-c3noc(C(F)(F)F)n3)cc2)n1)N1CCC(F)(F)CC1 , tested on Puccinia recondita f. sp. tritici (the causal agent of wheat leaf rust).
[out] 79
